Hello, the source for this data is the supplement of paper PMC9112550, in case you need it.

- Tested on: Escherichia coli TOP10;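 note: peptides expressed intracellularly from a pBAD plasmid library in pooled LB shake-flask culture, induced with 0.3% L-arabinose, DNA abundance read by NGS, three biological replicates, DESeq2 with apeglm shrinkage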
- MEASUREMENT_PROTOCOL: shrunken log2 fold change of peptide-encoding DNA abundance (4.5 h post-induction vs induction); higher = less antimicrobial activity (less host growth inhibition)
- TEST_PARAMETERS: time post-induction: 4.5 h; library: site-saturation at positions 5, 18, 19, 20
For each entry below, report its shrunken log2 fold change value.
Quick one: just the number, no unit, thanks!

*Q* Data request, read-out shrunken log2 fold change, for RRIRERPPRLPRPRPRPPPQPRP
*A* 0.553

*Q* What about this sequence? RRIRGRPPRLPRPRPRPERGPRP
*A* 1.72

*Q* What about this sequence? RRIRMRPPRLPRPRPRPLDPPRP
*A* 0.146

*Q* What about this sequence? RRIRERPPRLPRPRPRPPLLPRP
*A* -0.0533
